Test system: OVCAR-4 ovarian
ASSAY REMARKS: NCI-60 one-dose screen, 48 h
APPLIED CONDITIONS: 10 µM
This is part of a sample that, as a whole, favours compounds with a hit. Of some 83,000 tested, about 20% had one in any assay. Calls of active or inactive are those of the source. Rule for the calls: active = growth percent below 10; inactive = the rest.
In this exercise, the only acceptable responses are y (active), n (inactive)

Query :: I would be grateful if you could indicate the recorded call for CCCCCCCCCCCCCCCCCN .
Result :: n

Query :: What classification did O=C(/C(=C/c1ccccc1)CBr)c1ccccc1 end up with in this test?
Result :: n

Query :: # outcome recorded in this test, key = Nc1ccc2cc(Br)c3ccccc3c2c1
Result :: n

Query :: Answer briefly: the call reported for COc1cc(C(C)(C)C)cc(OC)c1C(O)(c1c(OC)cc(C(C)(C)C)cc1OC)c1c(OC)cc(C(C)(C)C)cc1OC in this assay.
Result :: y

Query :: Just curious, what result did N#C/C(=C1C=C/C(=N\O)C(Cl)=C\1)c1ccccc1 get here?
Result :: n

Query :: Called result for CN1CCN(c2ccc3nc(-c4ccc5nc(-c6ccc(O)cc6)[nH]c5c4)[nH]c3c2)CC1
Result :: n

----------
Tested on: MCF7 breast
ASSAY REMARKS: NCI-60 one-dose screen, 48 h
APPLIED CONDITIONS: 10 µM
Method: Growth inhibition of the MCF7 human tumor cell line is measured as a screen for anti-cancer activity. Cells are grown in 96 well plates and exposed to the test compound for 48 hours. Compounds are tested at a single concentration, which is 10^-5 M for most compounds. The reported endpoint is percent growth (GI% or GIPRCNT), where numbers from 0 - 100% represent growth inhibition, and numbers from -100% - 0 represent cell death. For example, a value of 40 represents 60% growth inhibition. […]
About 83,000 compounds went through this panel and 20% of them were active in at least one assay; those are over-represented in the sample as a whole. The source made the active and inactive calls. Rule for the calls: active = growth percent below 10; inactive = the rest.
Outcomes you can answer with include only these: 1 (yes) for active, 0 (no) for inactive

Solved cases below.
{"MOLECULE": "CSc1ccc2c(c1)C(N1CCN(C)CC1)Cc1ccccc1S2 (stereo unspecified)", "ASSIGNED CATEGORY": "0 (no)"}
{"MOLECULE": "COc1cc(C(C)(C)C)cc(OC)c1C(O)(c1c(OC)cc(C(C)(C)C)cc1OC)c1c(OC)cc(C(C)(C)C)cc1OC", "ASSIGNED CATEGORY": "1 (yes)"}
{"MOLECULE": "N#C/C(=C1C=C/C(=N\\O)C(Cl)=C\\1)c1ccccc1", "ASSIGNED CATEGORY": "0 (no)"}
{"MOLECULE": "CN(C)CCC(=O)c1c[nH]c2ccccc12", "ASSIGNED CATEGORY": "0 (no)"}
{"MOLECULE": "Nc1ccc2cc(Br)c3ccccc3c2c1", "ASSIGNED CATEGORY": "0 (no)"}

Attention now shifts to the item below.
Query :: Record lookup: outcome of this test for CN1CCN(c2ccc3nc(-c4ccc5nc(-c6ccc(O)cc6)[nH]c5c4)[nH]c3c2)CC1 ?
Result :: 0 (no)

----------
Test system: KM12 colon
ASSAY REMARKS: NCI-60 one-dose screen, 48 h
APPLIED CONDITIONS: 10 µM
Experimental: Growth inhibition of the KM12 human tumor cell line is measured as a screen for anti-cancer activity. Cells are grown in 96 well plates and exposed to the test compound for 48 hours. Compounds are tested at a single concentration, which is 10^-5 M for most compounds. The reported endpoint is percent growth (GI% or GIPRCNT), where numbers from 0 - 100% represent growth inhibition, and numbers from -100% - 0 represent cell death. For example, a value of 40 represents 60% growth inhibition. […]
The panel holds about 83,000 compounds, 20% with a hit somewhere; the sample as a whole holds those more often. Calls of active or inactive are those of the source. Rule for the calls: active = growth percent below 10; inactive = the rest.
Your reply should match one of these outcome classes. true = active, false = inactive

{"SMILES REPR": "CN1CCN(c2ccc3nc(-c4ccc5nc(-c6ccc(O)cc6)[nH]c5c4)[nH]c3c2)CC1", "ASSIGNED CATEGORY": "false"}

Query :: For COc1cc(C(C)(C)C)cc(OC)c1C(O)(c1c(OC)cc(C(C)(C)C)cc1OC)c1c(OC)cc(C(C)(C)C)cc1OC , which call appears in the assay record?
Result :: true

Query :: Look up the recorded call for BrC/C=C/C[P+](c1ccccc1)(c1ccccc1)c1ccccc1 in this test.
Result :: false

Query :: Give the logged outcome of this assay for the following compound: Cc1cc(NCCCN(C)C)c2ccc3c(ccc4c(NCCCN(C)C)cc(C)nc43)c2n1
Result :: true

Query :: Per the assay record, what outcome was assigned to Cc1cnc(/C=N\NC(N)=S)c2cccc(N)c12 ?
Result :: false

Query :: Test call for this compound, please: S=c1[nH]nc(Cc2ccccc2)c(=S)[nH]1
Result :: false

Query :: Record lookup: outcome of this test for CCCCCCCCCCCCCCCCCN ?
Result :: false
